# Test system: HOP-62
# assay.protocol: NCI tumour cell line growth inhibition, 48 h
Active and inactive are the calls of the source. No stated cut-off is given here; in the data, active = GI50 up to about 1.1 µM and inactive = higher.
outcome.measure: GI50

Given the entry `Cc1cc(N(CCC#N)CCC#N)ccc1/C=C1N=C(/C=C/c2ccccc2)N(c2ccc(S(N)(=O)=O)cc2)C\1=O` , report its measured GI50. > 100 µM (inactive)

Given the entry C[N+]1(Cc2ccc(Cl)c(Cl)c2)CCCC1C1CCCN(Cc2ccc(Cl)c(Cl)c2)C1 (stereo not given) , report its measured GI50. > 100 µM (inactive)

Given the entry `C=CCCC(=O)CC(=O)OCc1ccccc1` , report its measured GI50. > 100 µM (inactive)

Given the entry `COc1ccc2c(c1)CCc1c-2n(CCN(C)C)c2ccc(OC)cc12` , report its measured GI50. 16.1 µM (inactive)

Given the entry COc1ccc(CC2Cc3ccccc3CCN2)cc1OC (stereo not given) , report its measured GI50. 40.5 µM (inactive)
